Reported AC50 by item:
Molecular target: His6-TEV-PPARγ-(234-505) (Homo sapiens, UniProt P37231)
Construct: The His6-TEV-PPARγ-(234-505) protein for assay was expressed and purified; TEV cleavage site (N); made in house
Sequence (P37231 234-505): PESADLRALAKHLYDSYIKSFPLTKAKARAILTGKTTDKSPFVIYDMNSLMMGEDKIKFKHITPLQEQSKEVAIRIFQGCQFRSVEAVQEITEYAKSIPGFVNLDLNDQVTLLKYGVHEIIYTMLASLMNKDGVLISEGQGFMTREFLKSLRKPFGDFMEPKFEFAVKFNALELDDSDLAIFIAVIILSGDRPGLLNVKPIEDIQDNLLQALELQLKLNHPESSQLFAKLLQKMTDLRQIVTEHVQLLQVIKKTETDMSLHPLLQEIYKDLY
Assay: TR-FRET Assay to Measure Co-R Peptide Recruitment to PPARγ
Type: biochemical
Conditions: Co-R peptide (SMRT-ID2) recruitment; top final concentration 20 μM; read-out: TR-FRET i-Ag; AC50
Respond with the bare value in nM.

Record excerpt, results attached:
Looking for the measured AC50 of COc1cc(-c2cc(C(=O)N3CCC(C(=O)NC4(C#N)CCC4)CC3)n[nH]2)c(Cl)cn1 [Example 128] , can you help?
864

Looking for the measured AC50 of Cc1cc(-c2cc(C(=O)N3CCC(C(=O)NC4CCC(O)(C(F)(F)F)CC4)CC34CC4)n[nH]2)ncn1 (single isomer, unassigned) [Example 339-B] , can you help?
6.9

Next, consider the following compound.
Looking for the measured AC50 of COc1cc(-c2cc(C(=O)N3CC[C@H](C(=O)NC4CCC(O)(C(F)(F)F)C(O)C4)CC34CC4)n[nH]2)c(F)cn1 (single isomer, unassigned) [Example 474-E] , can you help?
1500
